Each entry below lists one item and its recorded IC50 value.
Tested on: 126254-015-R-J1-PDC complex spheroid growth, % test/control
assay.comment: Anticancer human tumor 126254-015-R-J1-PDC patient-derived soft tissue sarcoma cell line growth inhibition [Asc]
condition.summary: curve of first compound; second compound 0.316 µM

Consider the worked cases shown below.
Exercise: Requested read-out IC50, target or system 126254-015-R-J1-PDC complex spheroid growth, % test/control, entry CCN1CCN(Cc2ccc(Nc3ncc(F)c(-c4cc(F)c5nc(C)n(C(C)C)c5c4)n3)nc2)CC1 + Cc1c(S(C)(=O)=O)c(-c2cc(F)cc(N3CCN(c4ccc(NS(=O)(=O)c5ccc(NC(CCN6CCC(C(=O)OCCCP(=O)(O)O)CC6)CSc6ccccc6)c(S(=O)(=O)C(F)(F)F)c5)cc4)CC3)c2)c(-c2ccc(Cl)cc2)n1C(C)C
Key: > 1 µM

Exercise: Cool, now C#Cc1c(F)ccc2cc(O)cc(-c3ncc4c(N5CC6CCC(C5)N6)nc(OCC56CCCN5CC(F)C6)nc4c3F)c12 (stereo not drawn) + Cc1c(S(C)(=O)=O)c(-c2cc(F)cc(N3CCN(c4ccc(NS(=O)(=O)c5ccc(NC(CCN6CCC(C(=O)OCCCP(=O)(O)O)CC6)CSc6ccccc6)c(S(=O)(=O)C(F)(F)F)c5)cc4)CC3)c2)c(-c2ccc(Cl)cc2)n1C(C)C
Key: > 10 µM

// below: IC50 requested for another compound
Exercise: Requested read-out IC50, target or system 126254-015-R-J1-PDC complex spheroid growth, % test/control, entry C=CC(=O)N1CCN(c2nc(=O)n(-c3c(C)ccnc3C(C)C)c3nc(-c4c(O)cccc4F)c(F)cc23)C(C)C1 (stereo not drawn) + Cc1c(S(C)(=O)=O)c(-c2cc(F)cc(N3CCN(c4ccc(NS(=O)(=O)c5ccc(NC(CCN6CCC(C(=O)OCCCP(=O)(O)O)CC6)CSc6ccccc6)c(S(=O)(=O)C(F)(F)F)c5)cc4)CC3)c2)c(-c2ccc(Cl)cc2)n1C(C)C
Key: > 10 µM

* * *

Each entry below lists one item and its recorded pIC50 value.
System: 126254-015-R-J1-PDC complex spheroid growth, % test/control
assay.comment: Anticancer human tumor 126254-015-R-J1-PDC cell line growth inhibition [Asc];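 also: spheroids exposed to compound for seven days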
condition.summary: curve of first compound; second compound 0.0316 µM
pIC50: −log10 of the molar value.

Exercise: Requested read-out pIC50, target or system 126254-015-R-J1-PDC complex spheroid growth, % test/control, entry CCN1C(C(=O)NC23CCC(C(=O)O)(CC2)CC3)C(c2cccc(Cl)c2F)C2(C(=O)Nc3cc(Cl)ccc32)C12CCCCC2 (stereo not drawn) + CNC(C)C(=O)NC1CN(S(=O)(=O)c2cccc(S(=O)(=O)N3CCC4CCC(C(=O)NC(c5ccccc5)c5ccccc5)N4C(=O)C(NC(=O)C(C)NC)C3)c2)CCC2CCC(C(=O)NC(c3ccccc3)c3ccccc3)N2C1=O
Key: < 5.52

Exercise: Cool, now Cn1ncnc1[C@H]1c2n[nH]c(=O)c3cc(F)cc(c23)N[C@@H]1c1ccc(F)cc1 + CNC(C)C(=O)NC1CN(S(=O)(=O)c2cccc(S(=O)(=O)N3CCC4CCC(C(=O)NC(c5ccccc5)c5ccccc5)N4C(=O)C(NC(=O)C(C)NC)C3)c2)CCC2CCC(C(=O)NC(c3ccccc3)c3ccccc3)N2C1=O
Key: < 7.00

Exercise: Cool, now CCN1CCN(Cc2ccc(Nc3ncc(F)c(-c4cc(F)c5nc(C)n(C(C)C)c5c4)n3)nc2)CC1 + CNC(C)C(=O)NC1CN(S(=O)(=O)c2cccc(S(=O)(=O)N3CCC4CCC(C(=O)NC(c5ccccc5)c5ccccc5)N4C(=O)C(NC(=O)C(C)NC)C3)c2)CCC2CCC(C(=O)NC(c3ccccc3)c3ccccc3)N2C1=O
Key: < 6.00
